system: HCT-15 colon; assay: NCI tumour cell line growth inhibition, 48 h
PARAMETER_MEASURED: TGI

CCN1c2ccccc2C(Cl)(c2ccc(N(C)C)cc2)c2ccccc21 ... 49.4 µM
CSc1c(C#N)c(=O)[nH]c2n[nH]c(C)c12 ... > 100 µM
CSC1=C(C#N)C(=O)N(c2ccc(C)cc2)C(=S)C1C#N (stereo not drawn) ... > 100 µM
O=C1Cc2c([nH]c3ccc(Br)cc23)-c2ccccc2N1 ... > 100 µM
S=C1Nc2ccc(Cl)cc2C2(c3ccccc3)N3CCN=C3NN12 (stereo not drawn) ... > 100 µM
COC(=O)n1c(=O)n(-c2ccccc2)c(=O)n1C(=O)OC ... > 100 µM
O=[N+]([O-])c1ccc(N=Nc2c(O)c(S(=O)(=O)O)cc3cc(S(=O)(=O)O)ccc23)cc1 ... > 100 µM
O=C(Nc1ccccc1O)c1ccc(Oc2cccc(C(=O)Nc3ccccc3O)c2)cc1 ... 12.3 µM
COc1cc2c[n+](C)c3c4ccccc4ccc3c2cc1OC (tested in a mixture with another compound) ... > 100 µM
CCOc1nc(-c2ccccc2)cc(-c2ccc(N3CCOCC3)cc2)c1C#N ... > 100 µM

Provide each entry's TGI from the list below.
1. COc1ccc(Cl)cc1NC(=O)C(Br)C(Br)C(=O)O (stereo not drawn)
2. COc1cccc(Cc2c3cc(OC)ccc3cc[n+]2C)c1
3. O=[Se](=O)c1ccccc1.O=[Se](=O)c1ccccc1.[Cu]
4. COc1ccc2c(c1)N=C1CSC(c3ccccc3Cl)N1C2 (stereo not drawn)
5. O=C1c2c(n(Cc3ccccc3)c(=O)n2Cc2ccccc2)C(=O)N1Cc1ccccc1

Out:
1: 32.2 µM; 2: > 100 µM; 3: 34.1 µM; 4: 87.8 µM; 5: > 100 µM

Provide each entry's TGI from the list below.
1. COc1ccccc1/C=N\N=C(N/N=C/c1ccccc1OC)N/N=C/c1ccccc1OC
2. CN1CCN(Cc2ccc(NC(=O)c3ccc(C#Cc4c(N)ncc5ccc(F)cc45)cc3)cc2C(F)(F)F)CC1
3. O=C(C(=O)N1CC2C=CC1CC2)c1c[nH]c2ccccc12 (stereo not drawn)

Out:
18.3 µM
1.74 µM
> 100 µM

meta.source: PubChem BioAssay (NCI)
